Assay read-out IC50; system under study: HCV NS5B polymerase (Hepatitis C virus genotype 1b).
Experimental Endpoint: IC50

# Item Smiles, Result
rows = [
    ("CC(C)CCn1nc(-c2cccs2)c(O)c(C2=Nc3ccc(N(COC(=O)C(C)(C)C)S(C)(=O)=O)cc3S(=O)(=O)N2)c1=O", "100 to 1000 nM"),
    ("CC(C)CCn1nc(-c2cccs2)c(O)c(C2=Nc3ccc(NCCS(N)(=O)=O)cc3S(=O)(=O)N2)c1=O", "100 to 1000 nM"),
    ("CS(=O)(=O)Nc1ccc2c(c1)S(=O)(=O)N=C(c1c(O)c(-c3cccs3)nn(Cc3ccc(F)c(Cl)c3)c1=O)N2", "< 100 nM"),
    ("CC(C)CCn1nc(-c2cncs2)c(O)c(C2=NS(=O)(=O)c3cc(NS(C)(=O)=O)ccc3N2)c1=O", "< 100 nM"),
]

###

Molecular target: HCV NS5B polymerase (Hepatitis C virus genotype 1b)
pIC50: −log10 of the molar value.
Measured pIC50, listed per entry.

# Compound, Study System, pIC50
rows = [
    ("O=C(NS(=O)(=O)Nc1ccc2c(c1)S(=O)(=O)NC(c1c(O)c(-c3cncs3)nn(CC3CCC3)c1=O)=N2)OCc1ccccc1", "HCV NS5B polymerase (Hepatitis C virus genotype 1b)", "> 7.00"),
    ("CS(=O)(=O)Nc1ccc2c(c1)S(=O)(=O)N=C(c1c(O)c(-c3cccs3)nn(CCC3CCCCC3)c1=O)N2", "HCV NS5B polymerase (Hepatitis C virus genotype 1b)", "6.00 to 7.00"),
    ("CS(=O)(=O)Nc1ccc2c(c1)S(=O)(=O)NC(c1c(O)c(-c3cncs3)nn(CCC3CC3)c1=O)=N2", "HCV NS5B polymerase (Hepatitis C virus genotype 1b)", "> 7.00"),
    ("CS(=O)(=O)Nc1ccc2c(c1)S(=O)(=O)NC(c1c(O)c(-c3cccs3)nn(CC3CCC3)c1=O)=N2", "HCV NS5B polymerase (Hepatitis C virus genotype 1b)", "> 7.00"),
    ("CC(C)CC(C)n1nc(-c2cccs2)c(O)c(C2=NS(=O)(=O)c3cc(NS(C)(=O)=O)ccc3N2)c1=O (centres unmarked)", "HCV NS5B polymerase (Hepatitis C virus genotype 1b)", "6.00 to 7.00"),
    ("CCN(CC)CCS(=O)(=O)Nc1ccc2c(c1)S(=O)(=O)NC(c1c(O)c(-c3cccs3)nn(CCC(C)(C)C)c1=O)=N2", "HCV NS5B polymerase (Hepatitis C virus genotype 1b)", "6.00 to 7.00"),
    ("CS(=O)(=O)Nc1ccc2c(c1)S(=O)(=O)NC(c1c(O)c(-c3cncs3)nn(CC3CCC3)c1=O)=N2", "HCV NS5B polymerase (Hepatitis C virus genotype 1b)", "> 7.00"),
    ("C=CS(=O)(=O)N(C)c1ccc2c(c1)S(=O)(=O)NC(c1c(O)c(-c3cccs3)nn(CCC(C)(C)C)c1=O)=N2", "HCV NS5B polymerase (Hepatitis C virus genotype 1b)", "5.00 to 6.00"),
]

###

Counter-ions that a name gives are not always drawn.
Assay read-out IC50; system under study: HCV NS5B polymerase (Hepatitis C virus genotype 1b, UniProt P26663).
Sequence (P26663 2420-3010): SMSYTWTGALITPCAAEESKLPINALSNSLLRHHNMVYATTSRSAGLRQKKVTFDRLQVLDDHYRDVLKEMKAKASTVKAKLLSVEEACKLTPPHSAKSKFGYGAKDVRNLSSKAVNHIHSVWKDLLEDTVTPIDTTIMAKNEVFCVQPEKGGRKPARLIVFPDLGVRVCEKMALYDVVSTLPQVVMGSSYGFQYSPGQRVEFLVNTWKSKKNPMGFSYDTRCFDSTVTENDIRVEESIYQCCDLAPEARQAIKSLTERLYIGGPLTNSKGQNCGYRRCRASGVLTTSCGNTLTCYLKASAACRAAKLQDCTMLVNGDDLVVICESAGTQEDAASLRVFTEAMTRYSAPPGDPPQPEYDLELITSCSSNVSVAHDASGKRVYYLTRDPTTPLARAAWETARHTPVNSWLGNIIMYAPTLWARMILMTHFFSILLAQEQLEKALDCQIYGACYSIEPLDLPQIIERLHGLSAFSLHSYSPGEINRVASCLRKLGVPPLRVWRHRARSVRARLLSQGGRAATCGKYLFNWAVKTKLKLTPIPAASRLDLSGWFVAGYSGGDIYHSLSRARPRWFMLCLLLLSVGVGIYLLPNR
Experimental Endpoint: IC50

# Molecule, Result
measured = [
    ("CCS(=O)(=O)Nc1ccc2c(c1)S(=O)(=O)NC(c1c(O)c(-c3cccs3)nn(CCC(C)C)c1=O)=N2", "< 100 nM"),
    ("CC(C)CCn1nc(-c2cccs2)c(O)c(C2=NS(=O)(=O)c3cc(N4CCCS4(=O)=O)ccc3N2)c1=O", "100 to 1000 nM"),
    ("CC(C)CCn1nc(-c2cccs2)c(O)c(C2=Nc3ccc(N(C(C)C)S(C)(=O)=O)cc3S(=O)(=O)N2)c1=O", "1000 to 10000 nM"),
    ("CC(C)CCn1nc(-c2cncs2)c(O)c(C2=Nc3ccc(N(CCO)S(C)(=O)=O)cc3S(=O)(=O)N2)c1=O", "100 to 1000 nM"),
    ("CCC(C)CCn1nc(-c2cccs2)c(O)c(C2=NS(=O)(=O)c3cc(NS(C)(=O)=O)ccc3N2)c1=O (stereo not shown)", "< 100 nM"),
    ("CC(C)CCn1nc(C2=CCCC2)c(O)c(C2=NS(=O)(=O)c3cc(NS(C)(=O)=O)ccc3N2)c1=O", "< 100 nM"),
    ("CCC(C)(C)CCn1nc(-c2cccs2)c(O)c(C2=NS(=O)(=O)c3cc(NS(C)(=O)=O)ccc3N2)c1=O", "< 100 nM"),
    ("CCCC(C)n1nc(-c2cccs2)c(O)c(C2=NS(=O)(=O)c3cc(NS(C)(=O)=O)ccc3N2)c1=O (stereo not shown)", "100 to 1000 nM"),
    ("CS(=O)(=O)Nc1ccc2c(c1)S(=O)(=O)N=C(c1c(O)c(-c3cccs3)nn(CC3(C(F)(F)F)CC3)c1=O)N2", "< 100 nM"),
    ("CC(C)CCn1nc(-c2cncs2)c(O)c(C2=Nc3ccc(NS(=O)(=O)C(C)C)cc3S(=O)(=O)N2)c1=O", "< 100 nM"),
    ("CC(C)(C)CCn1nc(-c2cccs2)c(O)c(C2=Nc3ccc(NS(C)(=O)=O)cc3S(=O)(=O)N2)c1=O [sodium salt]", "< 100 nM"),
    ("CC(C)CCn1nc(-c2ccn(C)c2)c(O)c(C2=Nc3ccc(NS(C)(=O)=O)cc3S(=O)(=O)N2)c1=O", "< 100 nM"),
    ("CN(c1ccc2c(c1)S(=O)(=O)NC(c1c(O)c(-c3cccs3)nn(CC3(C(F)(F)F)CC3)c1=O)=N2)S(C)(=O)=O", "< 100 nM"),
    ("CC(C)CCn1nc(CC2=CCCC2)c(O)c(C2=NS(=O)(=O)c3cc(NS(C)(=O)=O)ccc3N2)c1=O", "100 to 1000 nM"),
    ("CC(C)CCn1nc(-c2cncs2)c(O)c(C2=Nc3ccc(NS(=O)(=O)C4CC4)cc3S(=O)(=O)N2)c1=O", "< 100 nM"),
    ("O=c1c(C2=Nc3ccc(NS(=O)(=O)C4CC4)cc3S(=O)(=O)N2)c(O)c(-c2cccs2)nn1Cc1ccc(F)c(Cl)c1", "100 to 1000 nM"),
]
